Data credit: PubChem BioAssay (NCATS)

assay: qHTS of pediatric cancer cell lines to identify multiple opportunities for drug repurposing: Primary screen for LAN-5 cells (AID 1347100); details: LAN-5 neuroblastoma viability, CellTiter-Glo luminescence, 48 h; series mostly up to 46 µM
Results filed as inconclusive are left out. Activity calls are given as the source filed them. Calls follow the shape of the dose curve; as a rule, active = well fitted cell-killing curve with a large enough effect; inconclusive = small, poorly fitted or top-dose-only effect; inactive = no such curve, though single readings can be large or run the other way.
parameter: outcome

Cc1onc(-c2ccccc2Cl)c1C(=O)N[C@@H]1C(=O)N2[C@@H]1SC(C)(C)[C@@H]2C(=O)O; inactive
Cc1cccc(Nc2ccncc2S(=O)(=O)NC(=O)NC(C)C)c1; inactive
O=C(O)CCn1c2c(c3ccccc31)C[C@H](NS(=O)(=O)c1ccc(F)cc1)CC2; inactive
CCCCS(=N)(=O)CCC(N)C(=O)O (stereo not given); inactive

Entry CC1=C(C(=O)O)N2C(=O)[C@@H](NC(=O)C(N)c3ccccc3)[C@H]2SC1 (stereo not given in full) : reported outcome = ?
inactive
